The measured values listed here are drawn from PubChem BioAssay (NCI).

# Tested on: SR leukemia
# Procedure Text: NCI tumour cell line growth inhibition, 48 h
Quantity Kind: TGI

Problem: Supply TGI value. Item: COC(=O)c1ccc2[nH]c(O)c(C(=Nc3ccc(N(C)C(=O)CN4CCN(C)CC4)cc3)c3ccc4c(c3)OCO4)c2c1
Result: 2.93 µM

Problem: Supply TGI value. Item: O=C(O)c1c2c(cc3c1CC(Cc1ccccc1)C3=O)CCC2 (stereo not given)
Result: > 100 µM

Problem: Supply TGI value. Item: COc1ccc2c(c1)CN1C(=N2)CSC1c1cccc(Br)c1 (stereo not given)
Result: > 100 µM

Problem: Supply TGI value. Item: O=C1CS(=O)(=O)C(c2cccc(Oc3ccccc3)c2)N1c1ccc(Cl)cc1 (stereo not given)
Result: 45.4 µM

Problem: Supply TGI value. Item: COc1ccc2nc3cc(Cl)ccc3c(Sc3ccc([N+](=O)[O-])cc3C)c2c1
Result: > 100 µM

Problem: Supply TGI value. Item: O=C(O)c1ccc(CN2CCC(CN[C@@H]3C[C@H]3c3ccccc3)CC2)cc1
Result: > 100 µM

Problem: Supply TGI value. Item: O=C(Nc1ccc(Cl)cc1)C1C(=O)C(=O)N(c2ccc(Cl)cc2)C1=O (stereo not given)
Result: > 100 µM

Problem: Supply TGI value. Item: N/N=C\c1c2ccccc2c(=O)n2c1oc1ccccc12
Result: 26 µM

Problem: Supply TGI value. Item: Cc1n(CC(C)C)c2c([n+]1C)C(=O)c1ccccc1C2=O
Result: 11.5 µM

Problem: Supply TGI value. Item: COc1cc2c(cc1OCCCCCCCCCCN1C(=O)c3cccc4cccc(c34)C1=O)N=C[C@@H]1CCCN1C2=O
Result: 3.84 µM

* * *

# Tested on: RXF 393 renal
# Procedure Text: NCI tumour cell line growth inhibition, 48 h
Quantity Kind: GI50

Problem: Supply GI50 value. Item: CC(=O)OC1OC([C@H]2c3cccc(O)c3C(=O)c3c(O)cc(C)cc32)C(O)C(O)C1O (some centres undefined)
Result: < 26.7 nM

Problem: Supply GI50 value. Item: O=C(O)c1ccc(CN2CCC(CN[C@@H]3C[C@H]3c3ccccc3)CC2)cc1
Result: > 100000 nM

Problem: Supply GI50 value. Item: COC(=O)c1ccc2[nH]c(O)c(C(=Nc3ccc(N(C)C(=O)CN4CCN(C)CC4)cc3)c3ccc4c(c3)OCO4)c2c1
Result: 360 nM

Problem: Supply GI50 value. Item: CCCCCCCCn1ccc2cc(NC(=O)Cn3cc(CN4CCCCCC4)nn3)ccc21
Result: 1660 nM

Problem: Supply GI50 value. Item: C=C1c2c(C)nn(-c3ccc(C#CCOC4OC(CO)C(O)C(O)C4O)cc3)c2N(C)C23C[C@H]1C1(C)c4c(C)nn(-c5ccc(C#CCOC6OC(CO)C(O)C(O)C6O)cc5)c4N(C)C(C)(C[C@H]12)C3 (some centres undefined)
Result: 1620 nM

Problem: Supply GI50 value. Item: CCN1C(=O)c2ccc3c4c(ccc(c24)C1=O)C(=O)N(CCCNCc1ccccc1OC)C3=O
Result: 671 nM

Problem: Supply GI50 value. Item: Cc1nnc(-c2ccc(C)c(-c3ccc(C(=O)Nc4cccc(C#N)c4)cc3)c2)o1
Result: > 25000 nM

Problem: Supply GI50 value. Item: COc1ccc2c(c1)C(=O)/C(=C/c1cccc(OCC(=O)c3ccccc3)c1)O2
Result: 3260 nM

Problem: Supply GI50 value. Item: CCCC(C)c1ccc(OCCCCCCN2CCNCC2)cc1 (centres undefined)
Result: 1550 nM

* * *

# Test system: K-562 leukemia
# Procedure Text: NCI tumour cell line growth inhibition, 48 h
Quantity Kind: TGI

Problem: Provide K-562 leukemia TGI reading for CCCCCCNCCc1cnc[nH]1 .
Result: > 100 µM

Problem: Provide K-562 leukemia TGI reading for O=C1C=C(C2OC(CO)C(O)C2O)C(=O)N1 (stereo unspecified) .
Result: > 100 µM

Problem: Provide K-562 leukemia TGI reading for CCOC(=O)c1ccc(N=C/C=C(\Nc2ccc(C(=O)OCC)cc2)C23CC4CC(CC(C4)C2)C3)cc1 .
Result: > 100 µM

Problem: Provide K-562 leukemia TGI reading for N[C@@H]1CCN(c2c(F)cc3c(=O)c(C(=O)O)cn4c3c2Oc2c-4ccc3c2ccc2ccccc23)C1 .
Result: > 100 µM

Problem: Provide K-562 leukemia TGI reading for NC(CCCC(N)P(=O)(O)O)P(=O)(O)O (stereo unspecified) .
Result: > 100 µM

Problem: Provide K-562 leukemia TGI reading for COC1OC(CS(=O)(=O)O)C(O)C(O)C1O (stereo unspecified) .
Result: > 100 µM

Problem: Provide K-562 leukemia TGI reading for COc1c(=O)cc2cc[nH]c3cc[nH]c1c23 .
Result: > 100 µM

Problem: Provide K-562 leukemia TGI reading for CC(C)CNc1nc(-c2ccccc2Cl)nc2ccccc12 .
Result: 43.5 µM

Problem: Provide K-562 leukemia TGI reading for CCOC(=O)/C=C(\C(=O)OCC)n1cc(C)c(=O)n(Cc2cn(CCCCOC(C)=O)nn2)c1=O .
Result: 9.01 µM

Problem: Provide K-562 leukemia TGI reading for O=C(O)CCC1CCc2cccc(O)c2C1=O (stereo unspecified) .
Result: > 100 µM

Problem: Provide K-562 leukemia TGI reading for O=C(O)CO[C@@]12C#C/C=C\C#C[C@@H]3N(C(=O)Oc4ccccc4)c4ccccc4[C@]14O[C@@]34CCC2 .
Result: 92.9 µM

* * *

# System: NCI-H226 lung
# Procedure Text: NCI tumour cell line growth inhibition, 48 h
Quantity Kind: TGI

Problem: Supply TGI value. Item: NC(N)=NS(=O)(=O)c1ccc(NNc2c3ccccc3nc3ccccc23)cc1
Result: 20.5 µM

Problem: Supply TGI value. Item: O=C(/C=C/c1ccccc1)Nc1ncc(Cc2ccccc2Cl)s1
Result: > 100 µM

Problem: Supply TGI value. Item: CC(C)(C)C1=C(Br)C(C(C)(C)C)OP1(=O)O (stereo unspecified)
Result: > 100 µM

Problem: Supply TGI value. Item: COc1cc(NS(=O)(=O)c2ccc(C)cc2)c2nccnc2c1
Result: > 100 µM

Problem: Supply TGI value. Item: Cn1c(Cl)c(/C=C2/C(=O)Nc3ccccc32)c2ccccc21
Result: 21.9 µM

Problem: Supply TGI value. Item: Cc1ccc2c(ccc(/C=C/c3ccc(O)c4ncccc34)[n+]2C)c1
Result: 46.5 µM

Problem: Supply TGI value. Item: Cc1ccc(S(=O)(=O)OC2CC=CC2)cc1
Result: > 100 µM

Problem: Supply TGI value. Item: O=C(Oc1ccc[nH]c1=O)c1cc([N+](=O)[O-])cc([N+](=O)[O-])c1
Result: > 100 µM

Problem: Supply TGI value. Item: Cc1n(CC(C)C)c2c([n+]1C)C(=O)c1ccccc1C2=O
Result: 1.27 µM

Problem: Supply TGI value. Item: CC[C@@H](C)[C@H](NC(=O)[C@H](Cc1ccccc1)NCC(F)(F)F)C(=O)OC(C)(C)C
Result: > 100 µM

Problem: Supply TGI value. Item: CSc1c(C(=O)Nc2ccccc2)c(N)n(N)c(=O)c1C#N
Result: > 100 µM

* * *

# Test system: UO-31 renal
# Procedure Text: NCI tumour cell line growth inhibition, 48 h
Quantity Kind: TGI (µM)
Response body: numeric value in µM, unit text excluded.

Problem: Supply TGI value. Item: O=C(O)c1c2c(cc3c1CC(Cc1ccccc1)C3=O)CCC2 (stereo not given)
Result: 30.5

Problem: Supply TGI value. Item: CC(C)(C)C1CCC(=O)/C(=C/CC2CC(=O)N(c3ccccc3)C(=O)C2)C1 (stereo not given)
Result: 30.2

* * *

# System: KM12 colon
# Procedure Text: NCI tumour cell line growth inhibition, 48 h
What TGI was measured for each of the following?

Problem: Supply TGI value. Item: COc1ccc2c(c1)C(=O)/C(=C/c1cccc(OCC(=O)c3ccccc3)c1)O2
Result: 16.1 µM

Problem: Supply TGI value. Item: CC(C)(C)c1cc([N+](=O)[O-])cc([N+](=O)[O-])c1O
Result: > 10 µM

Problem: Supply TGI value. Item: Nc1ncnc2c1ncn2C1C=C(CO)C(O)C1O (stereo unspecified)
Result: > 100 µM

Problem: Supply TGI value. Item: O=C(CSc1nnc(-c2ccccn2)s1)N/N=C/c1ccccc1
Result: > 100 µM

Problem: Supply TGI value. Item: O=C1NC(=S)S/C1=C/c1ccc2c(c1)OCO2
Result: > 100 µM

Problem: Supply TGI value. Item: CC1(C)[C@@H]2CC[C@]1(C)[C@H](OC(=O)CSC#N)C2
Result: > 100 µM

Problem: Supply TGI value. Item: NCCCNCCS
Result: > 100 µM

Problem: Supply TGI value. Item: COC1OC(CS(=O)(=O)O)C(O)C(O)C1O (stereo unspecified)
Result: > 100 µM

Problem: Supply TGI value. Item: C=CCCON(C(=O)OC(C)(C)C)c1ccccc1
Result: > 100 µM

Problem: Supply TGI value. Item: N#C/C(=C/c1cccc(Oc2ccccc2)c1)c1ccccc1
Result: > 100 µM

Problem: Supply TGI value. Item: Cc1cc(C)nc(NS(=O)(=O)c2ccc(Nc3c4ccccc4nc4ccc(C(=O)Nc5ccc(S(N)(=O)=O)cc5)cc34)cc2)n1
Result: > 100 µM
